Listing of recorded IC50 by entry.
- experimental_system: UniProt:P52026
- Sequence (P52026 whole entry): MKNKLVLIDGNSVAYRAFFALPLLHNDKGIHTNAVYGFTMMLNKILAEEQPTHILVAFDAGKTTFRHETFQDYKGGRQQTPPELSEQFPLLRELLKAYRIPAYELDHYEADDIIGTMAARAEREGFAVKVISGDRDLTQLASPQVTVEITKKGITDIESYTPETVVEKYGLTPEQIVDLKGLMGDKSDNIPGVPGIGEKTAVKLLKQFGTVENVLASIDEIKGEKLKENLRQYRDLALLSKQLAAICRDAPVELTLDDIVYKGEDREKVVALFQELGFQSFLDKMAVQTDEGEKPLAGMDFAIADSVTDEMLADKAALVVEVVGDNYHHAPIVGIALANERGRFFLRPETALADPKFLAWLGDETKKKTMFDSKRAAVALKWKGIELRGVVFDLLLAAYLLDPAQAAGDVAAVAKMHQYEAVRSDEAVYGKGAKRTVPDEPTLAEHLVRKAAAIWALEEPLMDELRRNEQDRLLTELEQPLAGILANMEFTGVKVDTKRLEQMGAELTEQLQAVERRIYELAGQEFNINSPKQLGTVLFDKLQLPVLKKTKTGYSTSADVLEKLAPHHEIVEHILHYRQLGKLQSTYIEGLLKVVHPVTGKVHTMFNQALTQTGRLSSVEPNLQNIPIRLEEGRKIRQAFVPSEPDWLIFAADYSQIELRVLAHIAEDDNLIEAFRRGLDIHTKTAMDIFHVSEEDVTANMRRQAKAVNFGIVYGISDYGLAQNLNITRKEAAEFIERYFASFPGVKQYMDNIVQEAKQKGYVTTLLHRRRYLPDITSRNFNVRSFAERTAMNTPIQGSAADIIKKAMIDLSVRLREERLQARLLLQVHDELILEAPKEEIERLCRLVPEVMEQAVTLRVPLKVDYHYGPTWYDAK
- test_method_notes: PEP
- Type: biochemical

- compound: "O=c1[nH]c(=O)n([C@H]2C[C@H](O)[C@@H](COP(=O)(O)OP(=O)(O)OP(=O)(O)O)O2)cc1COCc1ccccc1[N+](=O)[O-] [dU.I]"
  IC50: "98 nM"
- compound: "CC(OCc1cn([C@H]2C[C@H](O)[C@@H](COP(=O)(O)OP(=O)(O)OP(=O)(O)O)O2)c(=O)[nH]c1=O)c1ccccc1[N+](=O)[O-] (mixture of isomers) [dU.II]"
  IC50: "3500 nM"

---

- experimental_system: Therminator II polymerase (Thermococcus sp., UniProt Q56366, A485L/D141A/E143A/Y409V)
- Sequence (Q56366 1-775 D141A/E143A/Y409V/A485L): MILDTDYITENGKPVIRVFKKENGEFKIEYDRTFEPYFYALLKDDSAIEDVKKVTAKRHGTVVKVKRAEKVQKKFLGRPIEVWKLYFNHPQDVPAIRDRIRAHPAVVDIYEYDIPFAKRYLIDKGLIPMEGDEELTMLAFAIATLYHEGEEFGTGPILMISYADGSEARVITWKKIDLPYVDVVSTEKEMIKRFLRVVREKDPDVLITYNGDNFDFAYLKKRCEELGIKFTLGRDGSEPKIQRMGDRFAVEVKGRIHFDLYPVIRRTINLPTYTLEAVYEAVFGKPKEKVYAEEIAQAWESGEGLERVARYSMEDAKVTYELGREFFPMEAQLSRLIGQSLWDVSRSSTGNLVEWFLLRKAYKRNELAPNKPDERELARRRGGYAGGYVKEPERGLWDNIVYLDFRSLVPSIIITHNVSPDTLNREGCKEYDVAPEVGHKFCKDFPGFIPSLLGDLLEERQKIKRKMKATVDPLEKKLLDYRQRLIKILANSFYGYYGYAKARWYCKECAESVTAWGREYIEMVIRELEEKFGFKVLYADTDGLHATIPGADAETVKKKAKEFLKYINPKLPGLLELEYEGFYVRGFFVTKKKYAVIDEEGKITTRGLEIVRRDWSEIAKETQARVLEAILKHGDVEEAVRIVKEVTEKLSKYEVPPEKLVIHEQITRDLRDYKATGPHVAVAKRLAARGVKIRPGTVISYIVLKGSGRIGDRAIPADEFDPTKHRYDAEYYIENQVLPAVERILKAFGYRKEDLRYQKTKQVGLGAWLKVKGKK
- test_method_notes: PEP
- Format: biochemical
pIC50: −log10 of the molar value.
Listing of recorded pIC50 by entry.

- molecule: "O=c1[nH]c(=O)n([C@H]2C[C@H](O)[C@@H](COP(=O)(O)OP(=O)(O)OP(=O)(O)O)O2)cc1COCc1ccccc1[N+](=O)[O-]"
  pIC50: 8.24
- molecule: "CC(OCc1cn([C@H]2C[C@H](O)[C@@H](COP(=O)(O)OP(=O)(O)OP(=O)(O)O)O2)c(=O)[nH]c1=O)c1ccccc1[N+](=O)[O-] (mixture of isomers)"
  pIC50: 7.85
- molecule: "CC(C)C(OCc1cn([C@H]2C[C@H](O)[C@@H](COP(=O)(O)OP(=O)(O)OP(=O)(O)O)O2)c(=O)[nH]c1=O)c1ccccc1[N+](=O)[O-] (mixture of isomers)"
  pIC50: 6.85

---

- experimental_system: TaqFS polymerase (Thermus aquaticus, UniProt P19821, F667Y/G46D)
- Sequence (P19821 whole entry G46D/F667Y): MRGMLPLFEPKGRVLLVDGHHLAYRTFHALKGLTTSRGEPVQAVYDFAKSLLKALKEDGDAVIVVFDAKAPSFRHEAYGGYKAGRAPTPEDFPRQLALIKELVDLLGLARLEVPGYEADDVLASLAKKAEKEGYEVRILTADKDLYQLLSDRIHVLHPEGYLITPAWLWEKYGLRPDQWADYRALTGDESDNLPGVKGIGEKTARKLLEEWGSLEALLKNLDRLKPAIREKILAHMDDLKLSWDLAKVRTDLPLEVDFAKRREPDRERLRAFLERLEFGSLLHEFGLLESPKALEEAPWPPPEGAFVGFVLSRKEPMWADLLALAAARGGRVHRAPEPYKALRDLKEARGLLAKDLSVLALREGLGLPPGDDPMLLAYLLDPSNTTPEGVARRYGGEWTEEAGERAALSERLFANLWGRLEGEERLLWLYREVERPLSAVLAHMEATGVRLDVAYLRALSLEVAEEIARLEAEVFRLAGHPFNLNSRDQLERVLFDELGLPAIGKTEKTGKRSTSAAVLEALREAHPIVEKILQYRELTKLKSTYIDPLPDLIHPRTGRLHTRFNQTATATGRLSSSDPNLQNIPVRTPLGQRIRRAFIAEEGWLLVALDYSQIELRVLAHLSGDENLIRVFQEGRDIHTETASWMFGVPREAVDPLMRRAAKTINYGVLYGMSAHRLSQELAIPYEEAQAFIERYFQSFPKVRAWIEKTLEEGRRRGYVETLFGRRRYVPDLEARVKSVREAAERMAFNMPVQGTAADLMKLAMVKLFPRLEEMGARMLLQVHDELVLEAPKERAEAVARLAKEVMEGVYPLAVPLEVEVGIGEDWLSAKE
- test_method_notes: PEP

- chemical_structure: "O=c1[nH]c(=O)n([C@H]2C[C@H](O)[C@@H](COP(=O)(O)OP(=O)(O)OP(=O)(O)O)O2)cc1COCc1ccccc1[N+](=O)[O-]"
  IC50, µM: 25

---

- experimental_system: Taq polymerase (Thermus aquaticus, UniProt P19821)
- Sequence (P19821 whole entry): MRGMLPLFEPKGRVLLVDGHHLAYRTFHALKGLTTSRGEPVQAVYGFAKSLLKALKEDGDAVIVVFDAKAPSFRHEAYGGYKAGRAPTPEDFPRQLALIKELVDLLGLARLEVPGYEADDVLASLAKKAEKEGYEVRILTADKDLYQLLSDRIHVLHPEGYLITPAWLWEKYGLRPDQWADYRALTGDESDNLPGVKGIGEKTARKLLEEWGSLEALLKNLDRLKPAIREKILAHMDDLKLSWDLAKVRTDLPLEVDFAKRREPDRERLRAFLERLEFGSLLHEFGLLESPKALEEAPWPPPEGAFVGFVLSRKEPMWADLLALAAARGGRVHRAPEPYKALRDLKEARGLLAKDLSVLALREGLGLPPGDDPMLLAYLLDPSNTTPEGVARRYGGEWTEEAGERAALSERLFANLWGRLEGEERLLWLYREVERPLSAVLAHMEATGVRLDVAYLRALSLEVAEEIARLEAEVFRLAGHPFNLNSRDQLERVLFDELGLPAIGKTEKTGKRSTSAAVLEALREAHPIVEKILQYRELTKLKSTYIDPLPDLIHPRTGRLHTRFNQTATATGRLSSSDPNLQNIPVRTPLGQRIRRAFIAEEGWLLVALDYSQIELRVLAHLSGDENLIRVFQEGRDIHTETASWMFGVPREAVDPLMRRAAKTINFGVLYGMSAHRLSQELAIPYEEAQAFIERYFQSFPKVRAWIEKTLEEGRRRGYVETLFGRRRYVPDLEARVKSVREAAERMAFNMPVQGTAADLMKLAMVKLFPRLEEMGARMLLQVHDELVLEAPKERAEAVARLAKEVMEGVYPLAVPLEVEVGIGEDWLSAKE
pIC50: −log10 of the molar value.
readout_kind: pIC50

- molecule: "O=c1[nH]c(=O)n([C@H]2C[C@H](O)[C@@H](COP(=O)(O)OP(=O)(O)OP(=O)(O)O)O2)cc1COCc1ccccc1[N+](=O)[O-] [dU.I]"
  quantitative_result: 4.30

---

- experimental_system: Therminator polymerase (Thermococcus sp., UniProt Q56366, A485L/D141A/E143A)
- Sequence (Q56366 1-775 D141A/E143A/A485L): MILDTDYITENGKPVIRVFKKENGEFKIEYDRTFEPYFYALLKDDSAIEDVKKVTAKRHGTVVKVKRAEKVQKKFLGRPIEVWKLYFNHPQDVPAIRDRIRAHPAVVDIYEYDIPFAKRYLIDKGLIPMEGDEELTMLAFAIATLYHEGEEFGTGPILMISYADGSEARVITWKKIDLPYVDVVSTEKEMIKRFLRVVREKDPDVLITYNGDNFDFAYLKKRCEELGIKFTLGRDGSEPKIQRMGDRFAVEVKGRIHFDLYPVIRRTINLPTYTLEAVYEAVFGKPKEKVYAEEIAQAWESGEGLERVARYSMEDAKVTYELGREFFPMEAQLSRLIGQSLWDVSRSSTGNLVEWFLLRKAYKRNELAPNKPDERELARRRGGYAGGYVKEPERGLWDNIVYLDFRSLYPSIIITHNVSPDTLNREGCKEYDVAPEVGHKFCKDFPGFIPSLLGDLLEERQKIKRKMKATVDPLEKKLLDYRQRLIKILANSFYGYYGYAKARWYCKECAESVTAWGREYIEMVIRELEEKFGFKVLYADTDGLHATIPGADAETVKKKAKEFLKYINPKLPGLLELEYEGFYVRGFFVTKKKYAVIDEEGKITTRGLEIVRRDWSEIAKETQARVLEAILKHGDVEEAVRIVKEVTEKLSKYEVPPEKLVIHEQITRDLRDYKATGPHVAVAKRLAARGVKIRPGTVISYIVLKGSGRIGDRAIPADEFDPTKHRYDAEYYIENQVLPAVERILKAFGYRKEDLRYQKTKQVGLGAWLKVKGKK
- test_method_notes: PEP

- compound: "O=c1[nH]c(=O)n([C@H]2C[C@H](O)[C@@H](COP(=O)(O)OP(=O)(O)OP(=O)(O)O)O2)cc1COCc1ccccc1[N+](=O)[O-] [dU.I]"
  unit_abbreviation: "nM"
  IC50: 1.8

---

- experimental_system: Klenow(exo^−) polymerase (Escherichia coli, UniProt P00582, D355A/E357A)
- test_method_notes: PEP
- Type: biochemical
pIC50: −log10 of the molar value.
readout_kind: pIC50

- compound: "CC(OCc1cn([C@H]2C[C@H](O)[C@@H](COP(=O)(O)OP(=O)(O)OP(=O)(O)O)O2)c(=O)[nH]c1=O)c1ccccc1[N+](=O)[O-] (mixture of isomers) [dU.II]"
  quantitative_result: 5.62
- compound: "O=c1[nH]c(=O)n([C@H]2C[C@H](O)[C@@H](COP(=O)(O)OP(=O)(O)OP(=O)(O)O)O2)cc1COCc1ccccc1[N+](=O)[O-] [dU.I]"
  quantitative_result: 7.32

---

- experimental_system: DeepVent(exo^−) polymerase (Pyrococcus sp., UniProt Q51334, D141A/DEL493-1029/E143A)
- test_method_notes: PEP
pIC50: −log10 of the molar value.
readout_kind: pIC50

- compound: "O=c1[nH]c(=O)n([C@H]2C[C@H](O)[C@@H](COP(=O)(O)OP(=O)(O)OP(=O)(O)O)O2)cc1COCc1ccccc1[N+](=O)[O-] [dU.I]"
  readout_kind: "pIC50"
  quantitative_result: 8.31
- compound: "CC(C)C(OCc1cn([C@H]2C[C@H](O)[C@@H](COP(=O)(O)OP(=O)(O)OP(=O)(O)O)O2)c(=O)[nH]c1=O)c1ccccc1[N+](=O)[O-] (mixture of isomers) [dU.III]"
  readout_kind: "pIC50"
  quantitative_result: 6.66
- compound: "CC(OCc1cn([C@H]2C[C@H](O)[C@@H](COP(=O)(O)OP(=O)(O)OP(=O)(O)O)O2)c(=O)[nH]c1=O)c1ccccc1[N+](=O)[O-] (mixture of isomers) [dU.II]"
  readout_kind: "pIC50"
  quantitative_result: 7.77
